Values from PubChem BioAssay (NCI)

# Tested on: RXF 393 renal
# ASSAY_TEXT: NCI tumour cell line growth inhibition, 48 h
QUANTITY_NAME: TGI (µM)

>>> df
                                   compound  comparison_operator  experimental_value
0       Oc1cccc(-c2cn3cc(C(F)(F)F)ccc3n2)c1                    =                50.2
1  CS(=O)(=O)OCCN(CCOS(C)(=O)=O)c1ccc(C=O)cc1                    =                1.72
2  CCOC(=O)c1cc(C(=O)c2cc(OC)c(OC)c(OC)c2)n2ccccc12                    =               0.707
3  CCOc1ccc2nc(NC(NC(=O)c3cccnc3)(C(F)(F)F)C(F)(F)F)sc2c1                    =                61.1
4  COc1cc(/C=C2\C(=O)Nc3cccc(Cl)c32)cc(OC)c1OC                    =                36.9
5  C(=C\c1cc(-c2ccc3ccccc3n2)nc2ccc3ccccc3c12)/c1ccc2ccccc2n1                    >                 100
6  CC12CCC(C(Nc3ccccn3)C1=O)C2(C)C (stereo not given)                    >                 100
7  O=C(Nc1cccc(-n2cc(-c3ccncc3)c(-c3ccc(O)c(Cl)c3)n2)c1)Nc1cccc(C(F)(F)F)c1                    =                4.05
8  c1ccc(COC2(OCc3ccccc3)CC3OC2C2NN=NC32)cc1 (stereo not given)                    >                 100
9  CCCN(CCSSCCNc1nc(N(C)O)nc(N(C)O)n1)c1nc(N(C)O)nc(N(C)O)n1                    >                 100
